- targetSystem: T1, AFP158/HLA-A*02:01 complex (human)
- T1 construct: flowed as analyte in SPR
- protocolDetails: SPR, crude scFv captured, pMHC analyte;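 further: complex injected at several concentrations over the chip, association phase then running buffer for dissociation, KD derived from on- and off-rates computed from both curves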
observedProperty: kon (M⁻¹ s⁻¹)
Answers are plain numbers, in M⁻¹ s⁻¹.

Some entries whose results are on file:
INSERT INTO results (binder, experimentalresult) VALUES
  ('AS170036 VL1VH1-57M98F108S (scFv, also called 78-AS170036 VL1VH1-57M98F108S) scFv: QSALTQPRSVSGSPGQSVTISCAGTSSDVGSENYVSWYQQHPGKAPKLMIYQVNKRASGVPDRFSGSKSGNTASLTISGLQAEDEADYYCASYRSSDFNIVFGGGTKLTVLGGGGSGGGGSGGGGSEVQLVESGGGLVQPGGSLRLSCAASGFTFSSYAMSWVRQAPGKGLEWVSTINSGTGMPYYADSVKGRFTISRDNSKNTLYLQMNSLRAEDTAVYYCAKNFFDGSWFLSPPAMDYWGQGTLVTVSSHHHHHH', 190000),
  ('AS170036 VL1VH1-56Y98Q108S (scFv, also called 48-AS170036 VL1VH1-56Y98Q108S) scFv: QSALTQPRSVSGSPGQSVTISCAGTSSDVGSENYVSWYQQHPGKAPKLMIYQVNKRASGVPDRFSGSKSGNTASLTISGLQAEDEADYYCASYRSSDQNIVFGGGTKLTVLGGGGSGGGGSGGGGSEVQLVESGGGLVQPGGSLRLSCAASGFTFSSYAMSWVRQAPGKGLEWVSTINSGTYSPYYADSVKGRFTISRDNSKNTLYLQMNSLRAEDTAVYYCAKNFFDGSWFLSPPAMDYWGQGTLVTVSSHHHHHH', 160000);

Please state, for each entry, its recorded kon.
1. AS170036 VL1VH1-56Y98F108D (scFv, also called 41-AS170036 VL1VH1-56Y98F108D) scFv: QSALTQPRSVSGSPGQSVTISCAGTSSDVGSENYVSWYQQHPGKAPKLMIYQVNKRASGVPDRFSGSKSGNTASLTISGLQAEDEADYYCASYRSSDFNIVFGGGTKLTVLGGGGSGGGGSGGGGSEVQLVESGGGLVQPGGSLRLSCAASGFTFSSYAMSWVRQAPGKGLEWVSTINSGTYSPYYADSVKGRFTISRDNSKNTLYLQMNSLRAEDTAVYYCAKNFFDGSWFLDPPAMDYWGQGTLVTVSSHHHHHH
2. AS170036 VL1VH1-57H98I108A (scFv, also called 61-AS170036 VL1VH1-57H98I108A) scFv: QSALTQPRSVSGSPGQSVTISCAGTSSDVGSENYVSWYQQHPGKAPKLMIYQVNKRASGVPDRFSGSKSGNTASLTISGLQAEDEADYYCASYRSSDINIVFGGGTKLTVLGGGGSGGGGSGGGGSEVQLVESGGGLVQPGGSLRLSCAASGFTFSSYAMSWVRQAPGKGLEWVSTINSGTGHPYYADSVKGRFTISRDNSKNTLYLQMNSLRAEDTAVYYCAKNFFDGSWFLAPPAMDYWGQGTLVTVSSHHHHHH

[out]
1: 270000; 2: 230000
